Consider the following molecules; for each one, report its The lowest concentration inducing changes in mRNA levels of MBP.
Tested on: rat 3-D primary aggregating brain cell cultures
measurement.notes: Gene expression (mRNA of nestin, NF-200, S100β, MBP) by quantitative real-time PCR in aggregating brain cell cultures exposed to potential DNT chemicals
Assay type: cell-based
conditions.used: oligodendrocyte marker; exposure DIV 7-14 or 7-21; real-time PCR
Write the number in µM without appending the unit.

Incoming: # input molecule: [Cl][Cd][Cl] [Cadmium Chloride] ; wanted: its The lowest concentration inducing changes in mRNA levels of MBP
Outgoing: 10

Incoming: Again, but for S=C([S-])NCCNC(=S)[S-].[Mn+2] [Maneb]
Outgoing: 0.1

Incoming: Now consider CCOP(=S)(OCC)Oc1nc(Cl)c(Cl)cc1Cl [Chlorpyrifos] .
Outgoing: 1

Incoming: Then what about the molecule CNC(=O)Oc1cccc2ccccc12 [Carbaryl] ?
Outgoing: 0.1

Incoming: Here is the next molecule: [Cl][Pb][Cl] [Lead Chloride]
Outgoing: 0.1

Incoming: Try the molecule Cl[C@H]1[C@H](Cl)[C@@H](Cl)[C@@H](Cl)[C@H](Cl)[C@H]1Cl [Lindane]
Outgoing: 1

###

Test system: rat 3-D primary aggregating brain cell cultures
measurement.notes: Gene expression (mRNA of nestin, NF-200, S100β, MBP) by quantitative real-time PCR in aggregating brain cell cultures exposed to potential DNT chemicals
Assay type: cell-based
conditions.used: astrocytic marker; exposure DIV 7-14 or 7-21; real-time PCR
Protocol: Generally one batch of Rat primary aggregating brain cell cultures aggregates were prepared every month. […] The endpoints applied to study processes of neurodevelopment include quantitative real-time PCR, Western blot analysis and mass spectrometry based metabolomics. Aggregate cultures were maintained for 35 days in vitro (DIV). Samples were taken at DIV 1, 7, 14, 21, 28, 35 and mRNA was isolated, purified and quantified by RT-PCR. […]
Residues, ends and D or L forms follow the SMILES beside them.
property.name: The lowest concentration inducing changes in mRNA levels of S100β

Answered cases to consult:
compound=Cl[C@H]1[C@H](Cl)[C@@H](Cl)[C@@H](Cl)[C@H](Cl)[C@H]1Cl result=—^1
compound=S=C([S-])NCCNC(=S)[S-].[Mn+2] result=—^1
compound=CC(C)(c1ccc(O)cc1)c1ccc(O)cc1 result=—^1
compound="[Cl][Pb][Cl] [Lead Chloride]" result="10 µM"
compound=CCOP(=S)(OCC)Oc1nc(Cl)c(Cl)cc1Cl result="10 µM"
compound=CNC(=O)Oc1cccc2ccccc12 result=—^1
compound="[Cl][Cd][Cl] [Cadmium Chloride]" result="1 µM"

From here, focus on the item given below.
Incoming: Dear colleague, I am looking for the recorded The lowest concentration inducing changes in mRNA levels of S100β of the following compound: COC(=O)[C@H](Cc1ccccc1)NC(=O)[C@@H](N)CC(=O)O [Aspartame] (HELM PEPTIDE1{D.F.[CO[*:1]]}$$$$V2.0)
Outgoing: —^1

###

Test system: rat 3-D primary aggregating brain cell cultures
measurement.notes: Gene expression (mRNA of nestin, NF-200, S100β, MBP) by quantitative real-time PCR in aggregating brain cell cultures exposed to potential DNT chemicals
Assay type: cell-based
conditions.used: neuronal marker; exposure DIV 7-14 or 7-21; real-time PCR
property.name: The lowest concentration inducing changes in mRNA levels of NF-200 (µM)
Number in µM, nothing else.

Incoming: Any idea what its The lowest concentration inducing changes in mRNA levels of NF-200 is? The compound is S=C([S-])NCCNC(=S)[S-].[Mn+2]
Outgoing: 0.1

Incoming: Note, next up: [Cl][Pb][Cl] [Lead Chloride]
Outgoing: 0.1

Incoming: Same thing, different compound: CCOP(=S)(OCC)Oc1nc(Cl)c(Cl)cc1Cl
Outgoing: 0.1

Incoming: Now this one: [Cl][Cd][Cl] [Cadmium Chloride]
Outgoing: 1

Incoming: Thanks! And CC(C)(c1ccc(O)cc1)c1ccc(O)cc1 ?
Outgoing: 100

Incoming: Okay, and Cl[C@H]1[C@H](Cl)[C@@H](Cl)[C@@H](Cl)[C@H](Cl)[C@H]1Cl ?
Outgoing: 0.1

Incoming: Then this compound: CNC(=O)Oc1cccc2ccccc12
Outgoing: 0.1
